Molecular target: Man(a1-2)Man(a1-2)Man(a1-3)Man
Assay: glycan array binding signal (z-score within array); higher = stronger binding
Settings: glycan notation: IUPAC condensed, linker removed
About 410 targets per protein were measured; listed, in parts, are those with the strongest signals and a random draw of the rest.
Readout type: glycan array binding signal (z-score)

Some binders with recorded glycan array binding signal (z-score):
>>> test_result("Gz-CVNH (Gibberella zeae) (protein) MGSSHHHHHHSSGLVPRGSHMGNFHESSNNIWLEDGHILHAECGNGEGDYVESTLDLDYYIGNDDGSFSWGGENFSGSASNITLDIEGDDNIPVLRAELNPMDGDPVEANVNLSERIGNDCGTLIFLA")
3.53
>>> test_result("Na-CTL-1 (Necator americanus) (protein) MQRSFLLLLVVLAGAWAVNTTIPLKLMGGFTPMKYQCVGRVSDIWADVLFLIESSDMITKSGFRQVIAFITATTKKMTIGQDEKQTRVGFITYGEEAKLIYDLDHWRSTEKLSDLVQKIPYVKSSGTNIAAAIALANKVFNSPTHRPNVPKVMVIVANGLKKGSQNPIPVATAFKDFGGIIITIEYTQYDNIQVPILKKIASEGYNIRSNDEDFSVRTLTNMLLQANCFCPDHYVPFRVNNPEFGCFVTAKIPSMWRDAAEMCRAVEEGKLVKVENEEKAAFIMKLVGPKKEAWIGLRYYGNKFQWTDGTKLNADDFNLWPEDIKELNGPHCVSMYQDQKDKKYYWRAGKCLEDMRYVCEVQPCSASNYCSEPVFMYRQKHRALLPAPPPPPN")
0.039
>>> test_result("RSVL (Crotalus atrox), P21963 (protein) NNCPLDWLPMNGLCYKIFNQLKTWEDAEMFCRKYKPGCHLASFHRYGESLEIAEYISDYHKGQENVWIGLRDKKKDFSWEWTDRSCTDYLTWDKNQPDHYQNKEFCVELVSLTGYRLWNDQVCESKDAFLCQCKF")
-0.367

Now look at this entry.
**Q:** Give the value of glycan array binding signal (z-score) reported for the following: RfpC (Mycobacterium tuberculosum), O07747 (protein) MHHHHHHSSGRENLYFQGHMASKSAMAAGLVTASMSLSTAVAHAGPSPNWDAVAQCESGGNWAANTGNGKYGGLQFKPATWAAFGGVGNPAAASREQQIAVANRVLAEQGLDAWPTCGAASGLPIALWSKPAQGIKGS
**A:** 2.92

Each recorded value in this set is attributed to the supplement of paper PMC8728848.
